A collection of molecules and their measured MIC
System: K. pneumoniae JS-123
Assay type: cell-based
Conditions: JS-123, 16 h
Measured property: MIC (µg/mL)

INSERT INTO measurements (molecule, measured_property, readout_unit, readout_number) VALUES
  ('CC[C@@H](C)[C@H]1NC(=O)[C@H](NC(=O)[C@@H](Cc2c[nH]c3ccccc23)NC(=O)[C@H](CCCN)NC(=O)CNC(=O)[C@@H](CCCN)NC(=O)[C@H](CCCN)NC(=O)[C@H](Cc2c[nH]c3ccccc23)NC(=O)[C@H](Cc2ccc(O)cc2)NC(=O)[C@H](CO)NC(=O)CCCCCC(C)C)[C@H](C)OC(=O)CNC(=O)CNC(=O)[C@@H](CC(N)=O)NC1=O (single isomer, unassigned) [ent-Lat (ent-2), ent-laterocidine]', 'MIC', 'µg/mL', 4),
  ('CC[C@H](C)[C@@H]1NC(=O)[C@@H](NC(=O)[C@H](Cc2c[nH]c3ccccc23)NC(=O)[C@@H](CCCN)NC(=O)CNC(=O)[C@H](CCCN)NC(=O)[C@@H](CCCN)NC(=O)[C@@H](Cc2c[nH]c3ccccc23)NC(=O)[C@@H](Cc2ccc(O)cc2)NC(=O)[C@@H](CO)NC(=O)CCCCCC(C)C)[C@@H](C)NC(=O)CNC(=O)CNC(=O)[C@H](CC(N)=O)NC1=O [MeDap9-Lat (8), MeDap9-laterocidine]', 'MIC', 'µg/mL', 0.5),
  ('CCC(C)CCC(=O)N[C@@H](CC(N)=O)C(=O)N[C@@H](Cc1ccc(O)cc1)C(=O)N[C@@H](Cc1c[nH]c2ccccc12)C(=O)N[C@@H](CCCN)C(=O)N[C@H](CCCN)C(=O)NCC(=O)N[C@@H](CCCN)C(=O)N[C@H](Cc1c[nH]c2ccccc12)C(=O)N[C@H]1C(=O)N[C@H]([C@H](C)CC)C(=O)NCC(=O)N[C@H](CO)C(=O)O[C@H]1C (single isomer, unassigned) [ent-Brev (ent-1), ent-brevicidine]', 'MIC', 'µg/mL', 8);
